Target: T1, 4H3073-AA
T1 chain: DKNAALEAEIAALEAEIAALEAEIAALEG
Assay: two-hybrid library CCmax;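 also: natural log of median RNA to DNA barcode read ratio; higher means stronger binding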
Conditions: mean of both orientations
Reported metric: interaction score

Record excerpt, results attached:
[
  {
    "Binder": "DKIAALKAENAALKAENAALEAKIAALKG [4H2774-AA]",
    "interaction score": -1.43
  },
  {
    "Binder": "DENAALKAKNAALEAEIAALKAEIAALKG [4H1930-AA]",
    "interaction score": -0.77
  },
  {
    "Binder": "DENAALKAKIAALEAENAALKAKIAALEG [4H1821-AA]",
    "interaction score": -1.15
  }
]

[1] DEIAALEAENAALKAKNAALKAEIAALEG [4H249-AA]
[2] DENAALKAKIAALEAKIAALEAENAALKG [4H1828-AA]
[ask] Of the two listed items, which has the higher interaction score? First: 1 Second: 2 Select an item and report its label.
[reply] 2

[I] DKIAALEAKNAALEAKIAALEAEIAALKG [4H2466-AA]
[II] DKIAALKAKNAALEAKNAALKAEIAALEG [4H3001-AA]
[III] DKIAALKAENAALEAKIAALKAENAALKG [4H2732-AA]
[ask] Rank the 3 binders: largest interaction score first, smallest last. Answer format: the labels, in the requested order.
[reply] III, II, I
(III: 0.0758, II: -0.938, I: -1.43)

[A] DENAALKAEIAALKAEIAALKAKNAALEG [4H1615-AA]
[B] DKIAALEAKIAALEAKIAALEAKNAALEG [4H2343-AA]
[C] DKIAALKAEIAALEAENAALKAKNAALKG [4H2592-AA]
[D] DENAALKAEIAALKAKNAALEAEIAALKG [4H1650-AA]
[ask] Please put the entries in order of rising interaction score. Answer format: the labels, in the requested order.
[reply] D, A, C, B
(D: -1.16, A: -0.406, C: -0.000754, B: 0.404)

[a] DKIAALKAKNAALKAEIAALEAKNAALEG [4H3015-AA]
[b] DKIAALEAKIAALEAENAALKAEIAALKG [4H2330-AA]
[ask] Of the two listed items, which has the higher interaction score? First: a Second: b Select an item and report its label.
[reply] a
(a: 0.065, b: -1.5)

[I] DENAALKAENAALKAKIAALEAKIAALEG [4H1765-AA]
[II] DKIAALEAENAALKAEIAALKAKIAALEG [4H2253-AA]
[ask] Of the two listed items, which has the higher interaction score? First: I Second: II Select an item and report its label.
[reply] II
